Task for the reader: assign each of the following molecules its reported Emax.
- Tested on: electrically paced left atrium
- Protocol Text: Isolated rat atria: tension of the electrically paced left atrium
- Condition Set: Rattus norvegicus, Krebs solution at 32°C; maximal effect relative to isoprenaline maximum (isoprenaline = 1); read-out: Tension Intrinsic Activity
Write the answer as a number in %, unit excluded.

Prompt: Answer with reported Emax of CC(Cc1ccc2c(c1)NC(=O)CO2)NCC(O)COc1ccccc1 (centres unmarked)
Completion: 11

Prompt: Determine from records and report Emax for CC(COc1ccc2c(c1)OCC(=O)N2)NCC(O)c1ccc(O)cc1 (centres unmarked)
Completion: 97

Prompt: Give the reported Emax for this molecule. CC(Cc1ccc2c(c1)NC(=O)CO2)NCC(O)c1cccc(Cl)c1 (centres unmarked)
Completion: 12

Prompt: Tell me measured Emax for CC(Cc1ccc2c(c1)NC(=O)CO2)NCC(O)COc1ccc(O)cc1 (centres unmarked) please.
Completion: 54

Prompt: Read off the recorded Emax for CC(COc1ccc2c(c1)NC(=O)CO2)NCC(O)c1ccc(O)cc1 (centres unmarked)
Completion: 88

Prompt: Answer with the recorded Emax for the molecule listed here: CC(COc1ccc2c(c1)OCC(=O)N2)NCC(O)COc1ccc(O)cc1 (centres unmarked)
Completion: 52

Prompt: Annotate the molecule CC(COc1ccc2c(c1)NC(=O)CO2)NCC(O)c1ccc(Cl)c(Cl)c1 (centres unmarked) with its measured Emax.
Completion: 14

Prompt: Specify measured Emax for CC(COc1ccc2c(c1)OCC(=O)N2)NCC(O)c1cccc(Cl)c1 (centres unmarked) .
Completion: 18

Prompt: Give Emax for CC(COc1ccc2c(c1)NC(=O)CO2)NCC(O)c1cccc(Cl)c1 (centres unmarked)
Completion: 7

Prompt: Provide one value: measured Emax of CC(Cc1ccc2c(c1)NC(=O)CO2)NCC(O)COc1ccccc1O (centres unmarked)
Completion: 12

Prompt: Answer with the recorded Emax of CC(COc1ccc2c(c1)NC(=O)CO2)NCC(O)COc1ccc(O)cc1 (centres unmarked) only.
Completion: 40
